biological target: human orexin-2 receptor (Homo sapiens (Human), UniProt O43614); experiment: FLIPR Ca2+ Flux Assay, orexin-2 receptor; type: cell-based; details: CHO cells expressing the human orexin-2 receptor; agonist 70 pM Ala-6,12 human orexin-A; read-out: hOX2R FLIPR IC50
Sequence (O43614 whole entry): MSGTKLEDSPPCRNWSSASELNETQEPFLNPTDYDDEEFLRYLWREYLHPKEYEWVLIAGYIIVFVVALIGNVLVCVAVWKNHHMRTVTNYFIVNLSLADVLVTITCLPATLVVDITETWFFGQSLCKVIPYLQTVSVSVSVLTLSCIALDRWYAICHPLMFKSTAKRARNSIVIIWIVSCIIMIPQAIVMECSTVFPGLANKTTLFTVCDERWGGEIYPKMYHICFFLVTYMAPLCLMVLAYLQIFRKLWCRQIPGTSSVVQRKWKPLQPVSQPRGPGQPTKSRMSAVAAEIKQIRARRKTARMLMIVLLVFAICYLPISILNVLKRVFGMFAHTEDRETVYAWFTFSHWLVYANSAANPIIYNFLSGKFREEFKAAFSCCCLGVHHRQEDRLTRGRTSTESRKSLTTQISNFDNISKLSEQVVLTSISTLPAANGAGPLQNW
MEASURED_ATTRIBUTE: pIC50
# pIC50 = -log10(concentration in molar units)

stdin: Request body: readout pIC50, system human orexin-2 receptor (Homo sapiens (Human), UniProt O43614), query Cc1c(C#N)ccnc1O[C@@H]1CC[C@@H](C)N(C(=O)c2ccsc2-n2nccn2)C1 . Return the value.
stdout: 8.05

stdin: Recorded pIC50 for Cc1c(C#N)ccnc1O[C@@H]1CC[C@@H](C)N(C(=O)c2cccc(F)c2-n2nccn2)C1 with human orexin-2 receptor (Homo sapiens (Human), UniProt O43614), please?
stdout: 7.92

stdin: Lab note: need pIC50 with human orexin-2 receptor (Homo sapiens (Human), UniProt O43614) for entry COc1c(C#N)ccnc1O[C@@H]1CC[C@@H](C)N(C(=O)c2ccsc2-c2ncccn2)C1 , please look it up.
stdout: 7.85

stdin: // fetch human orexin-2 receptor (Homo sapiens (Human), UniProt O43614) pIC50 for Cc1c(C#N)ccnc1O[C@@H]1CC[C@@H](C)N(C(=O)c2cnc(Cl)cc2-n2nccn2)C1
stdout: 7.46
